- Tested on: MCF-7 cell line
- Assay info: Cell proliferation assay (CCK-8), MCF-7
- Format: cell-based
- Settings: Homo sapiens, MCF7, 168 h; Table 1; 7 days incubation with compound; read-out: MCF-7 cell line CCK8 IC50
pIC50: −log10 of the molar value.
Readout kind: pIC50

Compound | Readout kind | Number
Nc1nnc(-c2ccccc2O)cc1C#CC1CC2(CCNCC2)C1 [Compound 10c] | pIC50 | 5.15
Nc1nnc(-c2ccccc2O)cc1C#CC1CNC1 | pIC50 | 4.51
CC(=O)N1CCN(c2cc(-c3ccccc3O)nnc2N)CC1 [Control compound, reference compound] | pIC50 | 4.13

###

- Assay system: SMARCA2^BD protein (Homo sapiens, UniProt P51531, I1395R)
- Construct: His-SMARCA2^BD(S1377-Q1486); His6 (leader mhhhhhhgslvpr\gs, with thrombin-type site lvpr\gs) (N); made in house
- Sequence (P51531 1377-1486 isoform P51531-2 I1395R): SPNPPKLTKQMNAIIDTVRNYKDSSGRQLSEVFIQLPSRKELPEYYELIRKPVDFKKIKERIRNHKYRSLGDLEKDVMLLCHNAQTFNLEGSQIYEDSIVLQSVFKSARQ
- Assay info: Fluorescence polarization (FP) detection, SMARCA2 bromodomain
- Assay type: binding
- Settings: Table 2; probe 10 nM, SMARCA2^BD protein 50 nM, 2 h room temperature
Readout kind: IC50 (nM)

Compound | Display unit | Number
CN(C)[C@H]1[C@@H]2CN(c3cc(-c4ccccc4O)nnc3N)C[C@@H]21 [Compound 20] | nM | 170
COC1(C#Cc2cc(-c3ccccc3O)nnc2N)CCC(N2CCCC2)CC1 (stereo not shown) [Compound 15] | nM | 190
CC(=O)N[C@H]1[C@@H]2CN(c3cc(-c4ccccc4O)nnc3N)C[C@@H]21 [Compound 21] | nM | 130
COc1ccc(C#Cc2cc(-c3ccccc3O)nnc2N)cc1 [Compound 17] | nM | 1100

###

- Assay system: SMARCA4^BD protein (Homo sapiens, UniProt P51532)
- Construct: His6 (leader mhhhhhhgslvpr\gs, with thrombin-type site lvpr\gs) (N); made in house
- Sequence (P51532 1448-1575): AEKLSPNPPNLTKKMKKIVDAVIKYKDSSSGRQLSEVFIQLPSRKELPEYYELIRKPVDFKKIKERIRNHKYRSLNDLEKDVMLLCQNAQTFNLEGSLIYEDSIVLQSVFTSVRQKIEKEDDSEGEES
- Assay info: Fluorescence polarization (FP) detection, SMARCA4 bromodomain
- Type: binding
- Settings: Table 1; probe 10 nM, SMARCA4^BD protein 120 nM, 2 h room temperature
pIC50: −log10 of the molar value.
Overview of recorded pIC50 for various molecules

Molecule | pIC50
Nc1nnc(-c2ccccc2O)cc1C#CC1CCNCC1 [Compound 1c] | 6.52
Nc1nnc(-c2ccccc2O)cc1C#CC1CCC2(CCNCC2)CC1 [Compound 6c] | 6.82
Nc1nnc(-c2ccccc2O)cc1C#CC1CC2(CNC2)C1 [Compound 4c] | 6.82
Nc1nnc(-c2ccccc2O)cc1C#CC1CNC1 [Compound 3c] | 6.24
CC(=O)N1CCN(c2cc(-c3ccccc3O)nnc2N)CC1 [Control compound, reference compound] | 6.28
Nc1nnc(-c2ccccc2O)cc1C#CC1CC2(CCNCC2)C1 [Compound 10c] | 6.85
Nc1nnc(-c2ccccc2O)cc1C#CC1CCC2(CC1)CNC2 [Compound 5c] | 6.89
Nc1nnc(-c2ccccc2O)cc1C#CC1CCNC1 (centres unmarked) [Compound 2c] | 6.55

###

- Test system: Hela cell line
- Assay info: Cell proliferation assay (CCK-8), Hela
- Type: cell-based
- Settings: Homo sapiens, 72 h, Table 2, 3 days incubation with compound, read-out: Hela cell line CCK8 IC50

Compound | Display unit | Reported relation | IC50
CC(=O)N1CCN(c2cc(-c3ccccc3O)nnc2N)CC1 [Control compound, reference compound] | µM | > | 100
COc1ccc(C#Cc2cc(-c3ccccc3O)nnc2N)cc1 | µM | = | 66.3
CN(C)[C@H]1[C@@H]2CN(c3cc(-c4ccccc4O)nnc3N)C[C@@H]21 | µM | = | 39
COC1(C#Cc2cc(-c3ccccc3O)nnc2N)CCC(N2CCCC2)CC1 (centres unmarked) | µM | = | 25.3
CC(=O)N[C@H]1[C@@H]2CN(c3cc(-c4ccccc4O)nnc3N)C[C@@H]21 | µM | = | 68.4
